All figures here come from ChEMBL document CHEMBL1147600.

experiment: Toxicity against human lymphocytes was determined up to 100 uM concentration; NA means Not Active
measuredQuantity: Toxicity

// known answers, use as guide
>  <molecule>
C[C@H]1O[C@@H](COC(=O)c2ccccc2)O[C@@H]1n1cc(F)c(N)nc1=O

>  <Toxicity>
Not Active

$$$$
>  <molecule>
C[C@H]1O[C@@H](COC(=O)c2ccccc2)O[C@H]1n1cc(F)c(N)nc1=O

>  <Toxicity>
Not Active

$$$$
>  <molecule>
C[C@H]1O[C@@H](CO)O[C@H]1n1cc(F)c(N)nc1=O

>  <Toxicity>
Not Active

$$$$
>  <molecule>
C[C@H]1O[C@@H](CO)O[C@@H]1n1cc(F)c(N)nc1=O

>  <Toxicity>
Not Active

$$$$

Now look at this one.
Looking up C[C@@H]1OC(CO)OC1n1cc(F)c(N)nc1=O (stereo not given in full) , I see its Toxicity listed as Not Active
